Target: MAL^TIR (Homo sapiens)
Construct: MAL (residues 79–221); 6xHis; made in house; host or cells: E. coli BL21 (DE3)
Assay: T‐Surf phage library (P8 and P3) selection against MAL^TIR, four rounds, NGS read counts
Assay type: binding
Settings: P3_MAL pool: P3 T-Surf phage library, 4th round of selection against MAL TIR, share of NGS reads
OUTCOME MEASURE: Population (%)

Known Population results, listed for orientation:
SUBSTANCE	OUTCOME MEASURE	OBSERVED MEASUREMENT
RLLNWKEALHQFHSWV	Population	0.00338
PNLRTKVLNYLMRSKT	Population	0.00451
YAFTGHLHRYLVQHGV	Population	0.0109
MSHLYQGLKNRGI	Population	0.00413

P = SSFREGLWHLLELSKK
Q = NQWRNALTKVANLV
R = YFWHALKNALAVNNDV
Task: In this exercise, place the 3 substances in ascending sequence of their recorded Population. Return the labels ranked in the requested order, please.
Output: P, Q, R
(P: 0.00413%, Q: 0.00639%, R: 0.056%)

---

Biological target: MAL^TIR (Homo sapiens, UniProt P58753)
Construct: MAL (residues 79–221); 6xHis; made in house; host or cells: E. coli BL21 (DE3)
Sequence (P58753 79-221): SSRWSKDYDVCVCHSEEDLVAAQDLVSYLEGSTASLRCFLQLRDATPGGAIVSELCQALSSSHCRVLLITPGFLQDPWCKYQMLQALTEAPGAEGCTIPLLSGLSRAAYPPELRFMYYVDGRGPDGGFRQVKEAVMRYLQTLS
Test: T‐Surf phage library (P8 and P3) selection against MAL^TIR, four rounds, NGS read counts
Type: binding
Conditions: P8 library, selection against MAL, rank by count after grouping
OUTCOME MEASURE: P8_MAL Rank (after)

SEQ TEXT	OBSERVED MEASUREMENT
LFLWESLKHLLRSDSL	719
RNNFIGHLYQALYRI	676
RNNFFGHLYHALYRIG	685
AFFWAQLKSVLRTQTM	696
AFFWAQLNSVLGNTTM	710
LFFWGSLKHLLRSGCR	691
TLLDHLCNELVQAGIH	721
AFLYAFLKNLTHPTNF	683
TFHSHLYNALVQAGIH	678
WFLEQLEKILEAHGTT	715
RKFVAYPFQALANKGI	703
NLWRNALTAAANLSSW	720
TFFSQQLNTVVHTAIL	697
AFLYTFLKNLPHPTNI	709
AFMYTFLINLTHPNNF	681
AILYTFLINLTLPANF	682
AFLYTFLIILTHPINF	688
WFLFTVRSAIYSISRA	692
AFFWEQLRTALGNPTM	704
RHNFIGYLYQALYRIG	723
AFFWAQQKSVLGDPTM	722
LFFWEKLKSVLGNPTM	693
YFLLFVLFGRSAIGSM	713
SLLYDHLRRLGIRAIM	700
GLSWGPYEWWMGLYDA	716
RNFVRICFRRWRIKA	687
SEFIQKMILWMNTKVV	689
TFLGFLYIALVQAGFL	724
AFYWAQLKIVLGNPTM	686
WFFERLVKLILRDTKV	712
DLLNGFIALKSTVIEN	717
ALFWAQLKCVMGNPAM	705
RNNFIGHLYQAPNQSV	699
WFYDRIVSLNGRDKQV	711
AFLYSLLFNRTHPNYF	702
PFLVHQYNEALQADSH	695
AFFWAQLKNVLGSPTI	718
KRFEDRMNKVLEWKAA	698

---

Biological target: MyD88^TIR (Homo sapiens)
Construct: MyD88 (residues 148–296); 6xHis; made in house; host or cells: E. coli BL21 (DE3)
Sequence (Q99836 148-296): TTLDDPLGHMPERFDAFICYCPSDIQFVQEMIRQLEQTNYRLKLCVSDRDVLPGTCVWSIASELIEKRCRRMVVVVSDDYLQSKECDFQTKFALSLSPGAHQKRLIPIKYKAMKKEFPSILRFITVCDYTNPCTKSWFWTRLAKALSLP
Test: T‐Surf phage library (P8 and P3) selection against MyD88^TIR, four rounds, NGS read counts
Type: binding
Details: P3 library, selection against MyD88, rank before grouping
OUTCOME MEASURE: P3_MyD88 Rank (before)

SEQ TEXT	P3_MyD88 Rank (before)
NRWRNALTAAANLRGG	3457
YAFTGHLCRCLVLRGA	1489
SSFRGGLWRLLELRKE	3131
YLKWGYRWYWDRLRFA	1576
LVAHRMSKKMKNVATI	2316
EWIREQLRPALKNVC	2142

a = YTALPNSGFHTIRDNE
b = QYSDTLLEHTSKFPA
Task: Would you mind telling me which has the lower recorded P3_MyD88 Rank (before) between a and b ? // return label of chosen record
Output: a
(a: 1712, b: 2837)

1 = LVANEISKKIKIFAII
2 = YYLDHSHPRKQNGEFG
3 = KLDSARMRKVQRLRET
Task: In this exercise, place the 3 sequences in ascending sequence of their recorded P3_MyD88 Rank (before). Return the labels ranked in the requested order, please.
Output: 2, 1, 3

P = DHHLDLPRGKAIKPEILGH
Q = SENYATSPWRWMNWC
R = FLSYRALEKRFGPLVQ
Task: In this exercise, place the 3 sequences in ascending sequence of their recorded P3_MyD88 Rank (before). Return the labels ranked in the requested order, please.
Output: R, P, Q
(R: 1378, P: 2026, Q: 2992)

a = YTALTNSGFHIFSANG
b = SENYATSPWALDELLIAIEE
Task: Would you mind telling me which has the lower recorded P3_MyD88 Rank (before) between a and b ? // return label of chosen record
Output: a
(a: 1664, b: 2979)

A = YTALTNSSFHTFRDNH
B = RKGDLISDELRIPLEE
Task: Which is greater in P3_MyD88 Rank (before), the first item A or the second item B ? // return label of chosen record
Output: B

1 = DHHLDLPRGKAIKE
2 = NQWRFGSKVDAWKAAL
3 = FLSYLALEKRFSPIGQ
Task: Please rank these sequences by P3_MyD88 Rank (before) in descending order. Return the labels ranked in the requested order, please.
Output: 2, 1, 3
(2: 3470, 1: 2017, 3: 1343)

A = YAFTGHLPRDLVLRGG
B = SEMRVVEDGSVSPLEM
Task: Would you mind telling me which has the lower recorded P3_MyD88 Rank (before) between A and B ? // return label of chosen record
Output: A

P = DHHLDLPRGKANKPEILD
Q = SSYRQGLWRLLELSKK
Task: Would you mind telling me which has the lower recorded P3_MyD88 Rank (before) between P and Q ? // return label of chosen record
Output: P
(P: 2035, Q: 3267)

---

Biological target: MAL^TIR (Homo sapiens)
Construct: MAL (residues 79–221); 6xHis; made in house; host or cells: E. coli BL21 (DE3)
Test: T‐Surf phage library (P8 and P3) selection against MAL^TIR, four rounds, NGS read counts
Type: binding
Details: P8_MAL pool: P8 T-Surf phage library, 4th round of selection against MAL TIR, share of NGS reads
OUTCOME MEASURE: Population (%)

Known Population results, listed for orientation:
SUBSTANCE	OBSERVED MEASUREMENT
AFLYTFLISLTHPTNF	0.00402
WFYERLVSLFLRDTKV	0.00371
AFLYTFLINLTHPTTF	0.0034

a = RNFVAYLFQALANKSI
b = AFLYTFLINLTHPNNF
Task: Would you mind telling me which has the lower recorded Population between a and b ? // return label of chosen record
Output: a

---

Biological target: MyD88^TIR (Homo sapiens)
Construct: MyD88 (residues 148–296); 6xHis; made in house; host or cells: E. coli BL21 (DE3)
Assay: T‐Surf phage library (P8 and P3) selection against MyD88^TIR, four rounds, NGS read counts
Format: binding
Details: P8_MyD88: rank by count after grouping
OUTCOME MEASURE: Rank (after)

Known Rank (after) results, listed for orientation:
SEQ TEXT	Rank (after)
LEANDSLFWDRLYY	403
GTFIDYLYHRLMEEGI	107
DPQDLDWFYERLLS	471
LFWANLRAALQGDLPY	130
WALAELLQLLHARELF	395

P = DPQDLEWLYERLVSLF
Q = WRTALTKVGNMLGWIS
R = DPQDLDWFFERLVSLL
Task: In this exercise, place the 3 sequences in ascending sequence of their recorded Rank (after). Return the labels ranked in the requested order, please.
Output: R, P, Q
(R: 117, P: 180, Q: 430)

a = DIVAYVMQKLMKHQVF
b = DPQDLDGCYERLVSLF
Task: Would you mind telling me which has the lower recorded Rank (after) between a and b ? // return label of chosen record
Output: a
(a: 154, b: 393)

A = APQDLEWFYERLVSLIL
B = NNFSAFLFEALFENGI
Task: Which is greater in Rank (after), the first item A or the second item B ? // return label of chosen record
Output: A
(A: 431, B: 181)

a = PGYHWLEWEYFVGIED
b = IVQALWSKVHHSLTLF
Task: Which is greater in Rank (after), the first item a or the second item b ? // return label of chosen record
Output: a
(a: 442, b: 145)

a = DPQGLAWFYERLVSLL
b = SPWALYELVEILTAYK
Task: Which is greater in Rank (after), the first item a or the second item b ? // return label of chosen record
Output: a
(a: 443, b: 185)

1 = VANILGCHWIDWECFV
2 = DPQELEWFYERLVSLF
3 = WALQELVKILQAKIFL
Task: In this exercise, place the 3 sequences in ascending sequence of their recorded Rank (after). Return the labels ranked in the requested order, please.
Output: 3, 2, 1
(3: 109, 2: 163, 1: 464)

1 = YYDSRWALDELLKILDAKETM
2 = PQDLQWFYERLVSLI
Task: Which is greater in Rank (after), the first item 1 or the second item 2 ? // return label of chosen record
Output: 1

P = DPQDLELFYEQLVRPF
Q = YASSIWALNELIRILE
Task: Would you mind telling me which has the lower recorded Rank (after) between P and Q ? // return label of chosen record
Output: Q

// data source = paper PMC11714206
